Target: T1, H-NS (Escherichia coli K-12 MG1655 (cloning …, UniProt P0ACF8 1-137))
T1 sequence: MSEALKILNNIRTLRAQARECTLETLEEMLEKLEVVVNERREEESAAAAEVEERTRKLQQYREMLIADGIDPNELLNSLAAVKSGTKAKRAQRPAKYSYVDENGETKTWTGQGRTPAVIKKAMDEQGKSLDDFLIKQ
Assay: BLI; PBS without ZnCl2; printed unit umoL; kdis 0.0145/s; EMSA: 20 mM Tris-HCl pH 8.0, 100 mM NaCl, 1 mM MgCl2, 1 mM ZnCl2, 4% glycerol, RT 10 min (competition 4 C, 30 min + 30 min); BLI: PBS + 1 mM ZnCl2 (CadCc, 50 ug/mL) or PBS (H-NS), 25 C; footprinting: 30 C, 30 min
Details: protein: recombinant; tags: N-terminal 6xHis (pGL01); chain copies: 2; Methods: 'C-terminus'); blunt
property_name: Kd (µM)

INSERT INTO assay_data (binder, property_name, result) VALUES
  ('19 nt overlap DNA of ydiV promoter (dsDNA) DNA 1: TCATCATATATAATGATAT DNA 2: ATATCATTATATATGATGA', 'Kd', 0.533);
